Values were extracted from ChEMBL document CHEMBL3414522.

assay: in vitro; details: rat, liver microsomes
experimentalEndpoint: remaining at 20 min, 1 µM (%)

molecule: CNC(=O)c1ccc(Oc2ccc(S(=O)(=O)C3(C(=O)NO)CCC4(CCNCC4)C3)cc2)cc1 (centres undefined)
remaining at 20 min, 1 µM (%): 99.8
--
molecule: CNC(=O)c1ccc(Oc2ccc(S(=O)(=O)[C@]3(C(=O)NO)CCC4(CCNCC4)C3)cc2)cc1
remaining at 20 min, 1 µM (%): 98.1
--
molecule: O=C(NO)C1(S(=O)(=O)c2ccc(Oc3ccc(OC(F)(F)F)cc3)cc2)CCC2(CCNCC2)C1 (centres undefined)
remaining at 20 min, 1 µM (%): 95.6
--
molecule: CNC(=O)c1ccc(Oc2ccc(S(=O)(=O)[C@@]3(C(=O)NO)CCC4(CCNCC4)C3)cc2)cc1
remaining at 20 min, 1 µM (%): 97.4

====

assay: in vitro; conditions: mouse, liver microsomes
experimentalEndpoint: remaining at 20 min, 1 µM (%)

compound: CNC(=O)c1ccc(Oc2ccc(S(=O)(=O)[C@]3(C(=O)NO)CCC4(CCNCC4)C3)cc2)cc1
experimentalEndpoint: remaining at 20 min, 1 µM
recordedResult: 98
--
compound: CNC(=O)c1ccc(Oc2ccc(S(=O)(=O)[C@@]3(C(=O)NO)CCC4(CCNCC4)C3)cc2)cc1
experimentalEndpoint: remaining at 20 min, 1 µM
recordedResult: 89.6
--
compound: O=C(NO)C1(S(=O)(=O)c2ccc(Oc3ccc(OC(F)(F)F)cc3)cc2)CCC2(CCNCC2)C1 (centres undefined)
experimentalEndpoint: remaining at 20 min, 1 µM
recordedResult: 87.2
--
compound: CNC(=O)c1ccc(Oc2ccc(S(=O)(=O)C3(C(=O)NO)CCC4(CCNCC4)C3)cc2)cc1 (centres undefined)
experimentalEndpoint: remaining at 20 min, 1 µM
recordedResult: 97.5
